So I've got a bunch of molecules here, and I need their pIC50 values.
# Measured on: USP7 (Homo sapiens)
# Construct: USP7, construct USP7 (208-1102) 6*His, Viva Biotech; 6xHis (C); purchased Viva Biotech
# Sequence (Q93009 208-1102): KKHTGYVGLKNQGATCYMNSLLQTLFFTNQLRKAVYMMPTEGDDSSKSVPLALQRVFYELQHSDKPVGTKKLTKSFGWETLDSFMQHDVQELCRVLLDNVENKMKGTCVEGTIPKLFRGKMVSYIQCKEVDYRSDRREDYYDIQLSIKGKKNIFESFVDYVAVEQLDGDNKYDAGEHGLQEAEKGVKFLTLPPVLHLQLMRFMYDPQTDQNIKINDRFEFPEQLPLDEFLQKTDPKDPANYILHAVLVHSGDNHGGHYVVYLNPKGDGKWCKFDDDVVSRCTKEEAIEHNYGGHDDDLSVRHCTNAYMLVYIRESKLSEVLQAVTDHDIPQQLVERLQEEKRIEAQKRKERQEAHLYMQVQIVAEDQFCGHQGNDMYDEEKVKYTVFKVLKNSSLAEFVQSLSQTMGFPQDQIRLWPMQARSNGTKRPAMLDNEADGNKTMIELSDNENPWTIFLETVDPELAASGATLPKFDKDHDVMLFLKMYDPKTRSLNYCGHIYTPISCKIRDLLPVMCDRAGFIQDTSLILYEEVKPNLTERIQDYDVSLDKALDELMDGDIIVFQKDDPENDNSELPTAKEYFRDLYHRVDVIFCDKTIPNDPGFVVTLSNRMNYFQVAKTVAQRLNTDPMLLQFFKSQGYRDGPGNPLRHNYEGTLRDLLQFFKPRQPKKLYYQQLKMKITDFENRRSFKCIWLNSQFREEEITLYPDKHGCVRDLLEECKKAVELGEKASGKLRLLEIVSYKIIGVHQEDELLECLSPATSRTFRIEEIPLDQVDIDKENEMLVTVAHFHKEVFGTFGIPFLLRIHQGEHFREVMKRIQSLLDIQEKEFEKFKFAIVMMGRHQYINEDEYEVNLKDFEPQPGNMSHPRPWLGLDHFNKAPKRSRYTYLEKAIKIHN
# Protocol notes: USP7 Assay A (Ubitquin-Rhodamine 110 Assay)
# Format: biochemical
# Measurement conditions: USP7 activity in USP7 assay A and B (table does not say which assay per compound); read-out: USP7_IC50
pIC50: −log10 of the molar value.

CN1CC(O)(COc2ccc(-n3ncc4c(=O)n(CC5(O)CCN(C(=O)c6ccc(F)cc6)CC5)cnc43)cc2)C1 [Compound I-816] ... > 6.70
O=C(c1ccc(F)cc1)N1CCC(O)(Cn2cnc3c(cnn3-c3ccc(-c4cnn(C5CCS(=O)(=O)CC5)c4)cc3)c2=O)CC1 [Compound I-1744] ... 6.00 to 6.70

Shift focus to the following entry.
## Task // pIC50 lookup, key: CC1(C(=O)N2CCC(O)(Cn3cnc4c(cnn4-c4ccc(N5CC(N6CCOCC6)C5)cc4)c3=O)CC2)CC1 [Compound I-1636]
## Result 6.00 to 6.70

Reference source: patent US9902728B2
